Entries and their pEC50
# Test system: panel of cancer cell lines
# method summary: Cell viability (CellTiter-Glo) dose-response across cancer cell line panel;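 note: after 72 h compound incubation with CellTiter-Glo ATP readout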
# Format: cell-based, human
# details: Homo sapiens, BEN
Recall that pEC50 is obtained by taking minus log10 of the concentration measured in molar.

COCc1ccccc1NCc1ccc([C@H]2[C@@H](O)CCCc3cncn32)c(-c2ccccc2Cl)c1 [CSN5i-2] | 4.90

Q: Which measured pEC50 value corresponds to NS(=O)(=O)OC[C@@H]1C[C@@H](n2ccc3c(N[C@H]4CCc5ccccc54)ncnc32)C[C@@H]1O [MLN4924] ?
Ans: 5.96

----------
Reported EC50 values follow for various molecules
# Test system: panel of cancer cell lines
# method summary: Cell viability (CellTiter-Glo) dose-response across cancer cell line panel;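 note: after 72 h compound incubation with CellTiter-Glo ATP readout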
# Assay type: cell-based, human
# details: Homo sapiens, KMRC-1, KMRC-1
// units = nM; emit number, no label

NS(=O)(=O)OC[C@@H]1C[C@@H](n2ccc3c(N[C@H]4CCc5ccccc54)ncnc32)C[C@@H]1O | 435

Q: Any idea what its EC50 is? The molecule is COCc1ccccc1NCc1ccc([C@H]2[C@@H](O)CCCc3cncn32)c(-c2ccccc2Cl)c1
Ans: 1890

Q: Check CC(C)C[C@H](NC(=O)[C@H](Cc1ccccc1)NC(=O)c1cnccn1)B(O)O too.
Ans: 6.75

Taken from paper PMC5078989.
